Where do the numbers come from? From patent US20160185859A1.

testTarget: T1, human 5T4 antigen (human, UniProt Q13641 32-355, limits assumed)
T1 sequence: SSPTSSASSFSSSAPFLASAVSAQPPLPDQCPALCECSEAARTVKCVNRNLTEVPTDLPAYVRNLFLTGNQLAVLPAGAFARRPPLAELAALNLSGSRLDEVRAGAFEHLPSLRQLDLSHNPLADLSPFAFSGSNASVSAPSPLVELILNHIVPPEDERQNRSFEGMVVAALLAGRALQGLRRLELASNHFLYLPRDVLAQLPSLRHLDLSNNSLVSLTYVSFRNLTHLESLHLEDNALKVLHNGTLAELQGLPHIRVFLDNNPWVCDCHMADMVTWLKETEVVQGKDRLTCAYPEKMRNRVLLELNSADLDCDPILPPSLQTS
procedureDetails: BIACORE (SPR); human 5T4 antigen immobilized on CM5 chip
The binders listed here are annotated with their koff.
Give the quantity in s⁻¹, number only.

# example entries with known answers
{"columns": ["binder", "measuredMetric", "displayUnit", "experimentalValue"],
 "data": [
  ["chimeric A3 antibody bearing C91Y mutation (antibody, V domains shown, also called Chimeric A3 + C91Y; ChiA3+C91Y) VH: EVQLVESGGGLVQPKGSLKLSCAASGFTFNTYAMNWVRQAPGKGLEWVARIRSKSNNYATYYADSVKDRFTISRDDSQSMLYLQMNNLKTEDTAMYYCVRQWDYDVRAMNYWGQGTSVTVSS VL: DIVMTQSHIFMSTSVGDRVSITCKASQDVDTAVAWYQQKPGQSPKLLIYWASTRLTGVPDRFTGSGSGTDFTLTISNVQSEDLADYFCQQYSSYPYTFGGGTKLEIK", "koff", "s⁻¹", "1.6e-05"],
  ["chimeric A1 antibody (antibody, V domains shown, Biotinylated when used as the labelled competitor in Table 13; the site is not stated., also called ChiA1; ChiA1 γ4) VH: QIQLVQSGPELKKPGETVKISCKASGYTFTNFGMNWVKQGPGEGLKWMGWINTNTGEPRYAEEFKGRCAFSLETTASTAYLQINNLKNEDTATYFCARDWDGAYFFDYWGQGTTLTVSS VL: SIVMTQTPKFLLVSAGDRVTITCKASQSVSNDVAWYQQKPGQSPKLLINFATNRYTGVPNRFTGSGYGTDFTFTISTVQAEDLALYFCQQDYSSPWTFGGGTKLEIK", "koff", "s⁻¹", "6.7e-05"]
]}

Fill blank: measured koff of the binder chimeric A2 antibody (antibody, human IgG4, V domains shown, also called ChiA2; ChiA2 γ4) VH: QVQLQQSRPELVKPGASVKMSCKASGYTFTDYVISWVKQRTGQGLEWIGEIYPGSNSIYYNEKFKGRATLTADKSSSTAYMQLSSLTSEDSAVYFCAMGGNYGFDYWGQGTTLTVSS VL: QIVLTQSPAIMSASLGERVTLTCTASSSVNSNYLHWYQQKPGSSPKLWIYSTSNLASGVPARFSGSGSGTSYSLTISSMEAEDAATYYCHQYHRSPLTFGAGTKLELK is ____. 0.00025
